- measured target: KDR endogenously expressed on human umbilical vein endothelial cells (HUVEC) (human, UniProt P35968 20-1356); further: test concentration or dose not given here
- Sequence (P35968 20-1356): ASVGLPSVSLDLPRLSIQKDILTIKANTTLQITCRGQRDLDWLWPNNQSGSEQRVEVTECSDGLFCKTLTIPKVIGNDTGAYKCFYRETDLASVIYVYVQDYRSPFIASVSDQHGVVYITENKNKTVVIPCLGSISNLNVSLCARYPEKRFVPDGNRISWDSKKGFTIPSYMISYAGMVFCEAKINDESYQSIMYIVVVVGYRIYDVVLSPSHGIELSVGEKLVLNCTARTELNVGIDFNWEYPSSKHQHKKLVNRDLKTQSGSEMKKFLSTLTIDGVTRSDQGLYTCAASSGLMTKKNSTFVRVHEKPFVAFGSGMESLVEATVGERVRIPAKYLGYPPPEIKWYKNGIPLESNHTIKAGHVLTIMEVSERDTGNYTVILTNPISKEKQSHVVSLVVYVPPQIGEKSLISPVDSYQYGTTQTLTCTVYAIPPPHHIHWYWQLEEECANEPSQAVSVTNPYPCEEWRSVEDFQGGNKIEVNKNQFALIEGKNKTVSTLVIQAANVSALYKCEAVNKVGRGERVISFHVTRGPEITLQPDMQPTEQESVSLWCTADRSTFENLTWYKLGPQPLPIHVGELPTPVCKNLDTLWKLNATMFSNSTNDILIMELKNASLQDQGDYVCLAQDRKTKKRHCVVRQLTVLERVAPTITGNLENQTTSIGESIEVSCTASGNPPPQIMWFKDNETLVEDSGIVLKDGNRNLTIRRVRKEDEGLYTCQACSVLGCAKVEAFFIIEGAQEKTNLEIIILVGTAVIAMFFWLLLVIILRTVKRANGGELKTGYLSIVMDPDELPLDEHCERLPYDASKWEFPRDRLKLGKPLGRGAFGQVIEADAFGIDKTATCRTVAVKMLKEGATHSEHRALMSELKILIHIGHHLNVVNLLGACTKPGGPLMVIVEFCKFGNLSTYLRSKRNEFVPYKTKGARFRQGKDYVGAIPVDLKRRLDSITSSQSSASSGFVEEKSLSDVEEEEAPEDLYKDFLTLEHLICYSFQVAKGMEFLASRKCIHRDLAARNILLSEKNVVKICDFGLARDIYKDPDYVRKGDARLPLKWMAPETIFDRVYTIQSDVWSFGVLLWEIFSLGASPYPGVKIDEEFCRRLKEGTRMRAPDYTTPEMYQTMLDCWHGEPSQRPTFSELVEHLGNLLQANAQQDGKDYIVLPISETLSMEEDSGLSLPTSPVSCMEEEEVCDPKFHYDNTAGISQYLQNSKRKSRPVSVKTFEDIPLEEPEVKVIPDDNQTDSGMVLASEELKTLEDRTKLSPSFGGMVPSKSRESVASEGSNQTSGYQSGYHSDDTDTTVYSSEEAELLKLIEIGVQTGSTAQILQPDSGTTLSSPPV
- protocol details: cell-based or functional assay
Task for the reader: assign each of the following binders its reported VEGF-E-mediated Survival % Inhibition (n = 2).
Form field: result (number plus unit)

Need VEGF-E-mediated Survival % Inhibition (n = 2) of 30A1 (antibody, V domains shown, Fully human mAb from XenoMouse hybridoma, tested as hybridoma supernatant) VH: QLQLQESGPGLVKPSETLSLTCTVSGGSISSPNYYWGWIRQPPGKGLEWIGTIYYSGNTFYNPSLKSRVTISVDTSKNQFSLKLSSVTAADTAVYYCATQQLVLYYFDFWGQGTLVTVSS VL: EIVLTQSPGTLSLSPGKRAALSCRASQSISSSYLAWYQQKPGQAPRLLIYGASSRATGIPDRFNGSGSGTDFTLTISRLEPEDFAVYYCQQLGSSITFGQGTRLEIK , thanks. 59%

Need VEGF-E-mediated Survival % Inhibition (n = 2) of 29H3 (antibody, V domains shown, Fully human mAb from XenoMouse hybridoma, tested as hybridoma supernatant) VH: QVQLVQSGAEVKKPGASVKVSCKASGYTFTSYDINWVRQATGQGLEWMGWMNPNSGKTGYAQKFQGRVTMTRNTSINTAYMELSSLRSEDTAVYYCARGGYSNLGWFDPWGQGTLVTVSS VL: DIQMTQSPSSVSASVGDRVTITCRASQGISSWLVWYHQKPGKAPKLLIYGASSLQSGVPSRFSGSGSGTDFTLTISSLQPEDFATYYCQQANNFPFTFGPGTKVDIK , thanks. -11%

Need VEGF-E-mediated Survival % Inhibition (n = 2) of 22B8 (antibody, V domains shown, Fully human mAb from XenoMouse hybridoma, tested as hybridoma supernatant) VH: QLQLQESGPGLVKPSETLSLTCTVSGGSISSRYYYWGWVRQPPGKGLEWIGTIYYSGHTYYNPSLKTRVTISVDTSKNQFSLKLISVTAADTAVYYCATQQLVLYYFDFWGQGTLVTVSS VL: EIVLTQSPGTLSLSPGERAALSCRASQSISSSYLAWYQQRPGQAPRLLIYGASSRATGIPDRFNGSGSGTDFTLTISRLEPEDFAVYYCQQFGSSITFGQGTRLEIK , thanks. 53%

Need VEGF-E-mediated Survival % Inhibition (n = 2) of 30D7 (antibody, V domains shown, Fully human mAb from XenoMouse hybridoma, tested as hybridoma supernatant) VH: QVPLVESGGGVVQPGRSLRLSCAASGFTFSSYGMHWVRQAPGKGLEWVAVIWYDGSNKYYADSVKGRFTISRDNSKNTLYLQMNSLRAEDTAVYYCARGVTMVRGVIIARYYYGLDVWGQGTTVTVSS VL: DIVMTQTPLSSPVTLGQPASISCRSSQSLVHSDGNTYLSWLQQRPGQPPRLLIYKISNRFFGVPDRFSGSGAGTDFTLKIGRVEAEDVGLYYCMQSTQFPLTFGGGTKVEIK , thanks. -22%

Need VEGF-E-mediated Survival % Inhibition (n = 2) of 31E11 (antibody, V domains shown, Fully human mAb from XenoMouse hybridoma, tested as hybridoma supernatant) VH: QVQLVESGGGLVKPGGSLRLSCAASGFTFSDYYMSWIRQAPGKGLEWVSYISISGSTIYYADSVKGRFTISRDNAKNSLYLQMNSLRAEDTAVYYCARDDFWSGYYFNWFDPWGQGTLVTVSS VL: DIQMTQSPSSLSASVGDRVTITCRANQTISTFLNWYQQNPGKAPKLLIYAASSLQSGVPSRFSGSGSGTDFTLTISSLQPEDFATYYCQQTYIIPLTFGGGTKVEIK , thanks. 54%
